- System: stomach mucosa
- Procedure Text: cytoprotective activity in rats (ethanol-induced stomach mucosa lesions)
- Assay type: in vivo, Sprague-Dawley rats
- Condition Details: Rattus norvegicus, 1 h; methyl-7-oxa-9-alpha-hydroxy prost-13,14-ynoate derivatives; 5 mg per kg oral, half hour before absolute ethanol 10 ml per kg oral; lesions vs control; read-out: LESIONS % reduction
// label = Fulfilled if inhibition in vivo at 5 mg/kg is not less than 20%, otherwise Not fulfilled

Completed entries (count: 4):
CCCCCCC#C[C@H]1CC[C@H](O)[C@@H]1OCCCCCC(=O)OC (relative stereo) [triple H,H H,H (7-oxa-9-alpha-hydroxy)]
Not fulfilled
CCCCCC(=O)C#C[C@H]1CC[C@H](O)[C@@H]1OCCCCCC(=O)OC (relative stereo) [triple oxo H,H (7-oxa-9-alpha-hydroxy)]
Fulfilled
CCCCCC(=O)C#C[C@H]1CC[C@H](O)[C@@H]1OCCCCCC(=O)O (relative stereo)
Fulfilled
CCCCC(C)(C)C(O)C#C[C@H]1CC[C@H](O)[C@@H]1OCCCCCC(=O)OC (relative stereo)
Not fulfilled

Ask | Textbook exercise: given the entry CCCCCC(O)C#C[C@H]1CC[C@H](O)[C@@H]1OCCCCCC(=O)OC (relative stereo) , state whether its inhibition in vivo at 5 mg/kg is greater than or equal to 20%.
Reply | Not fulfilled
